system: MCF-7 (breast cancer) cell line; assay: MTT cell viability assay, MCF-7; assay type: cell-based, human; conditions: Homo sapiens, MCF7, 72 h, MTT, 72 h, 1-100 µM, mean ± SD
Field: IC50. Provide a value for each of the compounds that follow.
Kindly provide the numeric value in µM only, without the unit symbol.

Which IC50 value belongs to `Cc1cc(S(=O)(=O)N=c2[nH]c3ccc(Cl)cc3[nH]2)c(SCc2nc(N)nc(N3CCN(c4ccc(C(F)(F)F)cc4)CC3)n2)cc1Cl` ? 24

# input compound: `Cc1cc(S(=O)(=O)N=c2[nH]c3ccccc3[nH]2)c(SCc2nc(N)nc(N(C)c3ccc(Cl)cc3)n2)cc1Cl` ; wanted: its IC50 31

Which IC50 value belongs to `Cc1cc(S(=O)(=O)N=c2[nH]c3ccc(F)cc3[nH]2)c(SCc2nc(N)nc(N3CCc4ccccc43)n2)cc1Cl` ? 25

# query: IC50 of entry `Cc1cc(S(=O)(=O)N=c2[nH]c3ccc(F)cc3[nH]2)c(SCc2nc(N)nc(N3CCN(c4ccc(F)cc4)CC3)n2)cc1Cl` 24

Values from paper PMC7215599
